# Tested on: Pan troglodytes
# experiment-description: Natriuretic activity in chimpanzee assessed as change sodium level in urine measured per min at 5 mg/kg, po
# Assay type: functional
# conditions-used: 5 mg/kg
Listed here: items and their measured Activity.
measured-attribute: Activity (uEq)

compound	units-label	result
CC(C)C1(C)Cc2cc(OCC(=O)O)c(Cl)c(Cl)c2C1=O (racemic)	uEq	506
O=C(O)COc1cc2c(c(Cl)c1Cl)C(=O)C(C1CCCC1)C2 (single isomer, unassigned; (-))	uEq	292
O=C(O)COc1cc2c(c(Cl)c1Cl)C(=O)C(C1CCCC1)C2 (single isomer, unassigned; (+))	uEq	300

Source: ChEMBL document CHEMBL3272024
